Below is a list of entries, each paired with its recorded PBM 8-mer E-score value.
- Test system: MvaT
- procedure-details: PBM 8-mer E-score (mean of HK and ME arrays) (E-score (dimensionless, -0.5 to 0.5)); higher = stronger relative binding preference
In all, about 33,000 sequences were measured (“E-score (dimensionless, -0.5 to 0.5)”: median about -0.058, highest 2% from about 0.35 on). This is one part of a sample in which the highest values are shown more often than they occur.
recorded-metric: PBM 8-mer E-score

{"construct-sequence": "GGATTATA", "recorded-metric": "PBM 8-mer E-score", "meas-value": 0.32}
{"construct-sequence": "CTCTTATA", "recorded-metric": "PBM 8-mer E-score", "meas-value": 0.289}
{"construct-sequence": "AAATAACG", "recorded-metric": "PBM 8-mer E-score", "meas-value": 0.331}
{"construct-sequence": "GCAAATAA", "recorded-metric": "PBM 8-mer E-score", "meas-value": 0.325}
{"construct-sequence": "GTATTACA", "recorded-metric": "PBM 8-mer E-score", "meas-value": 0.224}
{"construct-sequence": "AAAAATTG", "recorded-metric": "PBM 8-mer E-score", "meas-value": 0.117}
{"construct-sequence": "GGTCGCGA", "recorded-metric": "PBM 8-mer E-score", "meas-value": -0.238}
{"construct-sequence": "ATAAACTC", "recorded-metric": "PBM 8-mer E-score", "meas-value": 0.269}
{"construct-sequence": "GTAAATTA", "recorded-metric": "PBM 8-mer E-score", "meas-value": 0.391}
{"construct-sequence": "ATTTTATC", "recorded-metric": "PBM 8-mer E-score", "meas-value": 0.202}
{"construct-sequence": "ACAGATAA", "recorded-metric": "PBM 8-mer E-score", "meas-value": 0.287}
{"construct-sequence": "ATAAACTG", "recorded-metric": "PBM 8-mer E-score", "meas-value": 0.175}
{"construct-sequence": "AGATTATA", "recorded-metric": "PBM 8-mer E-score", "meas-value": 0.39}
{"construct-sequence": "ATTTTACA", "recorded-metric": "PBM 8-mer E-score", "meas-value": 0.371}
{"construct-sequence": "ATGTTCTA", "recorded-metric": "PBM 8-mer E-score", "meas-value": 0.0957}
{"construct-sequence": "AGAGAAAT", "recorded-metric": "PBM 8-mer E-score", "meas-value": 0.134}
{"construct-sequence": "AGGGGCGA", "recorded-metric": "PBM 8-mer E-score", "meas-value": -0.155}
{"construct-sequence": "CTATATAA", "recorded-metric": "PBM 8-mer E-score", "meas-value": 0.421}
{"construct-sequence": "ATTTTATG", "recorded-metric": "PBM 8-mer E-score", "meas-value": 0.234}
{"construct-sequence": "ACATAACT", "recorded-metric": "PBM 8-mer E-score", "meas-value": 0.268}
{"construct-sequence": "CTGTCCAC", "recorded-metric": "PBM 8-mer E-score", "meas-value": -0.113}
{"construct-sequence": "CTATTCTA", "recorded-metric": "PBM 8-mer E-score", "meas-value": 0.131}
{"construct-sequence": "AATACGGG", "recorded-metric": "PBM 8-mer E-score", "meas-value": -0.0239}
{"construct-sequence": "CCTTCAAA", "recorded-metric": "PBM 8-mer E-score", "meas-value": -0.128}
{"construct-sequence": "GTCTTATA", "recorded-metric": "PBM 8-mer E-score", "meas-value": 0.325}
{"construct-sequence": "CTTTTATA", "recorded-metric": "PBM 8-mer E-score", "meas-value": 0.31}
{"construct-sequence": "ATATTCTA", "recorded-metric": "PBM 8-mer E-score", "meas-value": 0.348}
{"construct-sequence": "CCTTTATA", "recorded-metric": "PBM 8-mer E-score", "meas-value": 0.193}
{"construct-sequence": "AAATAACT", "recorded-metric": "PBM 8-mer E-score", "meas-value": 0.375}
{"construct-sequence": "ATAAATTG", "recorded-metric": "PBM 8-mer E-score", "meas-value": 0.369}
{"construct-sequence": "ATCGAATC", "recorded-metric": "PBM 8-mer E-score", "meas-value": -0.0636}
{"construct-sequence": "CCTGCCTC", "recorded-metric": "PBM 8-mer E-score", "meas-value": -0.249}
{"construct-sequence": "CTAAATTA", "recorded-metric": "PBM 8-mer E-score", "meas-value": 0.336}
{"construct-sequence": "AAAGCTGG", "recorded-metric": "PBM 8-mer E-score", "meas-value": -0.0254}
{"construct-sequence": "ATAAATTA", "recorded-metric": "PBM 8-mer E-score", "meas-value": 0.42}
{"construct-sequence": "GTTTTATA", "recorded-metric": "PBM 8-mer E-score", "meas-value": 0.243}
{"construct-sequence": "ACAAATAC", "recorded-metric": "PBM 8-mer E-score", "meas-value": 0.247}
{"construct-sequence": "CGATTATA", "recorded-metric": "PBM 8-mer E-score", "meas-value": 0.292}
{"construct-sequence": "ACAAATAA", "recorded-metric": "PBM 8-mer E-score", "meas-value": 0.38}
{"construct-sequence": "TATCTACA", "recorded-metric": "PBM 8-mer E-score", "meas-value": 0.17}
{"construct-sequence": "GATTCTGC", "recorded-metric": "PBM 8-mer E-score", "meas-value": -0.159}
{"construct-sequence": "ACTTTATC", "recorded-metric": "PBM 8-mer E-score", "meas-value": 0.105}
{"construct-sequence": "TCAAATAA", "recorded-metric": "PBM 8-mer E-score", "meas-value": 0.28}
{"construct-sequence": "GCATCCCC", "recorded-metric": "PBM 8-mer E-score", "meas-value": -0.212}
{"construct-sequence": "AACATCCC", "recorded-metric": "PBM 8-mer E-score", "meas-value": "2.53e-05"}
{"construct-sequence": "GATCTGAC", "recorded-metric": "PBM 8-mer E-score", "meas-value": -0.0641}
